assayed-system: recombinant human native-A1 adenosine receptor (Homo sapiens)
assay-method-text: Saturation radioligand binding, native-A1 (CHO-K1 membranes)
test-settings: ^125 I-ABA: high affinity sites
value-kind: Kd

Using the record for `Nc1ccc(CNc2ncnc3c2ncn3[C@@H]2O[C@H](CO)[C@@H](O)[C@H]2O)cc1I` , report its Kd.
102 nM

---

assayed-system: recombinant human native-A1 adenosine receptor (Homo sapiens, UniProt P30542)
Sequence (P30542 1-326): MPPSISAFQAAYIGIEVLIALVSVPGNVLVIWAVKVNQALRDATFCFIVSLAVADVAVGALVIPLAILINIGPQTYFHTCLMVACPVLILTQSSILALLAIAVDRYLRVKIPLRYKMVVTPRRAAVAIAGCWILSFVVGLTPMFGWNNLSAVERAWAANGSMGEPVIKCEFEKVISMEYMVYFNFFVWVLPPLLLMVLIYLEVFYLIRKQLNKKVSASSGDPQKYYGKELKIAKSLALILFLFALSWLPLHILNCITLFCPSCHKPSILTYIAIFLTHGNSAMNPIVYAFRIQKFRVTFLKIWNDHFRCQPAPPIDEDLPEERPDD
assay-method-text: Competition for radioligand binding, native-A1
Set-up: expressed in transfected cells
test-settings: competition with 1 nM ^125 I-ABA
Collected NH (Hill coefficient) values appear next to each entry.
Give a plain numeric answer without units written out.

For orientation, consider the following solved cases.
Cn1c(=O)c2[nH]c(-c3ccc(S(=O)(=O)O)cc3)nc2n(C)c1=O    0.87
CCNC(=O)[C@H]1O[C@@H](n2cnc3c(N)ncnc32)[C@H](O)[C@@H]1O    0.95
OC[C@H]1O[C@@H](n2cnc3c(NC4CCCC4)ncnc32)[C@H](O)[C@@H]1O    0.93

Pending compound:
Using the record for `CCCn1c(=O)c2[nH]c(-c3ccc(OCC(=O)NCCN)cc3)nc2n(CCC)c1=O` , report its NH (Hill coefficient).
1.12
